- target-or-test-system: β-lactamase CTX-M-14 (Klebsiella pneumoniae, UniProt A0A0H3H219)
- Construct: gene KPHS_p301310
- Sequence (A0A0H3H219 entry or part of it): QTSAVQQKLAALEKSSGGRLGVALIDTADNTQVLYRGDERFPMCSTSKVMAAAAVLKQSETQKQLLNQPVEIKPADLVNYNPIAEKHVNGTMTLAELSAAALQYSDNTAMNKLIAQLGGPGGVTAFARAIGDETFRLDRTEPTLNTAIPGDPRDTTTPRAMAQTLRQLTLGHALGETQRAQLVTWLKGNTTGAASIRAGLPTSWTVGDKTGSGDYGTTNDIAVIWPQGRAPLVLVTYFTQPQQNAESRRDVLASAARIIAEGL
- assay-remarks: time-resolved serial crystallography, formed in situ from Ser70-bound boric acid and glycerol (occupancy […]); IC50 is for boric acid combined with glycerol
- Format: biochemical
recorded-endpoint: pIC50
Value format note: pIC50 is -log10 of concentration (mol/L); just state the number.

Field pIC50 (entry OCC1COB(O)O1 (racemic) ) reads 2.51
